- assay.overview: Intrinsic clearance in mouse liver microsome
- Assay type: ADME
- condition.details: liver microsomes
Recorded measurements of microsomal CLint, one per entry

Quick note, microsomal CLint for CNS(=O)(=O)c1cc(-c2c3c(=O)n(C)c(=O)n(CC4CC4)c3nn2Cc2ccnc3ccc(Cl)cc23)n(C)c1 landed at > 100 µL/min/mg

###

- assay.overview: Intrinsic clearance in human liver microsome
- Assay type: ADME
- condition.details: liver microsomes
endpoint.name: microsomal CLint

// below: answered molecules
>>> print(df.to_string())
                                   molecule     endpoint_name  reported_result
0  Cn1cc(S(C)(=O)=O)cc1-c1c2c(=O)n(C)c(=O)n(CC3CC3)c2nn1Cc1c[nH]c2ccc(Cl)cc12  microsomal CLint     49 µL/min/mg
1  Cn1cc(S(C)(=O)=O)cc1-c1c2c(=O)n(C)c(=O)n(CC3CC3)c2nn1Cc1cn(C)c2ccc(Cl)cc12  microsomal CLint     23 µL/min/mg

Quick note, microsomal CLint for Cn1c(=O)c2c(-c3ccc(S(C)(=O)=O)o3)n(Cc3ccnc4ccc(Cl)cc34)nc2n(CC2CC2)c1=O landed at 17 µL/min/mg

Quick note, microsomal CLint for Cn1cc(S(C)(=O)=O)cc1-c1c2c(=O)n(C)c(=O)n(CC3CC3)c2nn1Cc1ccnc2ccc(Cl)cc12 landed at 20 µL/min/mg

###

- assay.overview: Equilibrium solubility of compound
- Type: physicochemical
endpoint.name: solubility thermodynamic (µM)
Give just the numeric value; µM need not be written.

Quick note, solubility thermodynamic for Cn1cc([S+](C)[O-])cc1-c1c2c(=O)n(C)c(=O)n(CC3CC3)c2nn1Cc1ccnc2ccc(Cl)cc12 (stereo unspecified) landed at 120

###

- assay.overview: Bioavailability in mouse at 40 mg/kg, po
- Assay type: ADME, organism-based
- condition.details: in vivo
endpoint.name: bioavailability

>>> print(df.to_string())
                                   compound  reported_result
0  Cn1cc(S(C)(=O)=O)cc1-c1c2c(=O)n(C)c(=O)n(CC3CC3)c2nn1Cc1ccnc2ccc(Cl)cc12              60%

Quick note, bioavailability for Cn1cc(C#N)cc1-c1c2c(=O)n(C)c(=O)n(CC3CC3)c2nn1Cc1ccnc2ccc(Cl)cc12 landed at 7.5%

Quick note, bioavailability for Cn1cc([S+](C)[O-])cc1-c1c2c(=O)n(C)c(=O)n(CC3CC3)c2nn1Cc1ccnc2ccc(Cl)cc12 (stereo not drawn) landed at 10%

###

Recorded measurements of microsomal CLint, one per entry
- assay.overview: Intrinsic clearance in mouse liver microsome
- Assay type: ADME
- condition.details: liver microsomes

// below: answered molecules
In [3]: df
Out[3]:
                                   molecule     endpoint_name  reported_result
0  Cn1cc(S(N)(=O)=O)cc1-c1c2c(=O)n(C)c(=O)n(CC3CC3)c2nn1Cc1ccnc2ccc(Cl)cc12  microsomal CLint   < 14 µL/min/mg
1  CNS(=O)(=O)c1cc(-c2c3c(=O)n(C)c(=O)n(CC4CC4)c3nn2Cc2c[nH]c3ccc(Cl)cc23)n(C)c1  microsomal CLint  > 100 µL/min/mg

Below: the item to evaluate.
Quick note, microsomal CLint for Cn1cc([S+](C)[O-])cc1-c1c2c(=O)n(C)c(=O)n(CC3CC3)c2nn1Cc1ccnc2ccc(Cl)cc12 (stereo not drawn) landed at > 100 µL/min/mg
